# Test system: UACC-257
# PROTOCOL SUMMARY: NCI tumour cell line growth inhibition, 48 h
Calls of active or inactive are those of the source. Rule as the data show it: active = GI50 up to about 1.1 µM and inactive = higher.
OBSERVED PROPERTY: GI50

MOLECULE | TARGET UNDER TEST | RESULT
CN(C)N1C(=C(C#N)C#N)C(c2ccccc2)CC1C#N (stereo unspecified) | UACC-257 | > 100 µM (inactive)
CCCCc1c2c(nc3c1CC/C(=C\c1ccccc1)C3=O)CCCC2 | UACC-257 | 5.78 µM (inactive)
CC[C@H](C)c1occ2c(O)c(C(=O)O)c(=O)cc-2c1C | UACC-257 | 30.3 µM (inactive)
Cn1c(C(C)(C)OC(=O)Oc2ccccc2)cnc1[N+](=O)[O-] | UACC-257 | 36 µM (inactive)
c1ccc(-c2nnc(-c3nsc4ccccc34)o2)cc1 | UACC-257 | > 100 µM (inactive)
NC(C/C=C/P(=O)(O)O)C(=O)O (stereo unspecified) | UACC-257 | > 100 µM (inactive)
CCOC(=O)C1=CC(C)(C(=O)OCC)Nc2c(nc(SC)[nH]c2=O)N1 (stereo unspecified) | UACC-257 | > 10 µM (inactive)
CCOC(=O)c1cc(C2(OC)CCN(Cc3ccccc3)C2=O)c(-c2cc(C)no2)[nH]1 (stereo unspecified) | UACC-257 | > 100 µM (inactive)
Cc1ccc2nc3[nH]nc(N)c3nc2c1 | UACC-257 | > 100 µM (inactive)
NC(CCCCNC(=O)OCc1ccccc1)C(=O)NC(CCCCNC(=O)OCc1ccccc1)C(=O)ON1C(=O)CCC1=O (stereo unspecified) | UACC-257 | > 100 µM (inactive)
CC(=O)[C@@H](C)C(=O)N1C(=O)OC[C@@]12[C@@H]1CC[C@@H](C1)C2(C)C | UACC-257 | > 100 µM (inactive)

----------
# Test system: UACC-62
# PROTOCOL SUMMARY: NCI tumour cell line growth inhibition, 48 h
Calls of active or inactive are those of the source. No stated cut-off is given here; in the data, active = GI50 up to about 1.1 µM and inactive = higher.

COMPOUND | TARGET UNDER TEST | GI50
CC(=O)Oc1cc(C)c2c(c1OC(C)=O)CC1(O2)[C@@H](C)CCC2[C@@]3(C)CC[C@H](OC(C)=O)C(C)(C)C3CC[C@]21C (some centres undefined) | UACC-62 | 2.46 µM (inactive)
CC(=O)c1ccc2c(ccc(=O)n2C)c1 | UACC-62 | 93.8 µM (inactive)
CCCCCCCC(CC(=O)NC(CO)C(=O)NC(CO)CC(C)C)OC(=O)CC(CCCCCCC)OC(=O)CC(CCCCCCC)OC1OC(C)C(O)C(OC2OC(C)C(O)C(O)C2O)C1O (centres undefined) | UACC-62 | 14.1 µM (inactive)
S=c1sc2c(s1)SCc1cccc(n1)CSc1sc(=S)sc1SCc1cccc(n1)CS2 | UACC-62 | > 100 µM (inactive)

----------
# Tested on: NCI-H460
# PROTOCOL SUMMARY: NCI tumour cell line growth inhibition, 48 h
Activity calls are given as the source filed them. Rule as the data show it: active = GI50 up to about 1.1 µM and inactive = higher.
Entries and their GI50

COMPOUND | TARGET UNDER TEST | GI50
CN(C1=NCCO1)c1cccc2c1CCCC2 | NCI-H460 | 4.01 µM (inactive)
COc1cccc(NC(=O)CSc2nnc(-c3ccc(NC(C)=O)cc3)o2)c1 | NCI-H460 | > 100 µM (inactive)
Cc1cc2nc3c(C(OC4OC(CO)C(O)C(O)C4O)C(O)CO)nn(-c4ccccc4)c3nc2cc1C (centres undefined) | NCI-H460 | > 100 µM (inactive)
CCOC(=O)/C(C#N)=C/N(CC)/N=C/c1ccccc1 | NCI-H460 | > 100 µM (inactive)
COC(=O)c1ccccc1/C=C1/Cc2ccccc2C1=O | NCI-H460 | > 100 µM (inactive)
Oc1nc(S)nc2c1CN(CCCN1CCOCC1)CN2 | NCI-H460 | 25.9 µM (inactive)
COC(=O)c1nn2ccc3ccccc3c2c1C(=O)OC | NCI-H460 | > 100 µM (inactive)
COc1cc(/C=C\c2nnc(/C=C\c3ccc(O)c(OC)c3)s2)ccc1O | NCI-H460 | 3.09 µM (inactive)
COc1cccc2c1C(=O)C1=C(C2=O)C(O)CC(C)(C)O1 (centres undefined) | NCI-H460 | 42.9 µM (inactive)
Cc1ccc([S+]([O-])CC(CF)OCn2cc(C)c(=O)[nH]c2=O)cc1 (centres undefined) | NCI-H460 | > 100 µM (inactive)
O=S(=O)(c1ccccc1)N1CCCC(c2ccccc2)CC1 (centres undefined) | NCI-H460 | 31.2 µM (inactive)
O=c1cc(-c2ccccc2)c2cc3c(=O)ccoc3cc2o1 | NCI-H460 | > 100 µM (inactive)
Cc1c2ccccc2c(C2C3C(=O)N(c4cccc5ccccc45)C(=O)C3ON2Cc2ccc(CC(N)=O)cc2)c2ccccc12 (centres undefined) | NCI-H460 | 13.5 µM (inactive)
NC1=NN(c2ccccc2)C(=O)C1/C(=N\NC(=O)c1cc2ccccc2cc1O)C(=O)Nc1cccc(C(F)(F)F)c1 (centres undefined) | NCI-H460 | 27.1 µM (inactive)
CC(=O)NNc1nc(C)c(C(=O)NNC(=O)C(=O)Nc2ccccc2C#N)s1 | NCI-H460 | > 100 µM (inactive)
COC(=O)c1ccc2c(c1)sc1nc(-c3ccc(OC)cc3)cn12 | NCI-H460 | > 100 µM (inactive)
C=CC[C@]12C=C(OC)[C@@H](O)[C@](OC)(C(c3cc(OC)c4c(c3)OCO4)[C@H]1C)[C@H]2OC(C)=O (some centres undefined) | NCI-H460 | > 100 µM (inactive)
C=CCn1c2c(c3ccccc3c1=O)C(=O)c1ccccc1-2 | NCI-H460 | 6.28 µM (inactive)
CC1CC[C@@]2(OC1)O[C@H]1C[C@H]3[C@@H]4CC[C@H]5C[C@@H](OC6OC(CO)C(OC7OC(CO)C(OC8OC(CO)C(O)C(OC9OC(C)C(OC%10OC(C)C(O)C(O)C%10O)C(O)C9O)C8OC8OCC(O)C(O)C8O)C(O)C7O)C(O)C6O)CC[C@]5(C)[C@H]4CC(=O)[C@]3(C)[C@H]1[C@@H]2C (some centres undefined) | NCI-H460 | 17.8 µM (inactive)
